Experiment: NCI Yeast Anticancer Drug Screen. Data for the cln2 rad14 strain (AID 165);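 note: 0% = growth equal to vehicle treated cultures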
Conditions: S. cerevisiae cln2 rad14 strain, at 50.0 µM, active compounds read high
The panel holds about 79,000 compounds, 15% with a hit somewhere; the sample as a whole holds those more often. The source made the active and inactive calls. Cut-off read from the data, not from the text of the source: active = growth inhibition above about 70%; inactive = the rest.
measurementKind: growth inhibition

Consider the reported growth inhibition for these compounds:
compound: CCCC(C)C(=O)OC1CCCCC1 (stereo not drawn)
testValue: -21.4% (inactive)
--
compound: C/C(=N\NC(=S)N1CCC(C2CCN(C(=S)N/N=C(\C)c3ccccn3)CC2)CC1)c1ccccn1
testValue: 45.2% (inactive)
--
compound: C=C(CCCCCCCCC)CC(=O)SCCNC(=O)CCNC(=O)C(O)C(C)(C)COP(=O)(O)OP(=O)(O)OCC1OC(n2cnc3c(N)ncnc32)C(O)C1OP(=O)(O)O (stereo not drawn)
testValue: -17% (inactive)

Quickly give me recorded growth inhibition for O=C(CBr)Nc1ccccc1[N+](=O)[O-]
0.4% (inactive)

###

Experiment: NCI Yeast Anticancer Drug Screen. Data for the sgs1 mgt1 strain (AID 161);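 note: 0% = growth of cultures given vehicle only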
Conditions: S. cerevisiae sgs1 mgt1 strain, at 50.0 µM
Experimental: Growth inhibition of yeast strains with defined genetic alterations is measured as a screen for potential anti-cancer activity. Selected strains with alterations in DNA damage repair or cell cycle control were exposed to compounds and growth inhibition was measured relative to vehicle treated controls. The strain used in this assay is sgs1 mgt1
About 79,000 compounds went through this panel and 15% of them were active in at least one assay; those are over-represented in the sample as a whole. Calls of active or inactive are those of the source. No stated cut-off is given here; in the data, active means growth inhibition above about 70%; inactive means the rest.
One label from this list, please: label 1 = active, label 0 = inactive

Examples from the recorded data:
compound: CN1C(=O)c2ccccc2NC(=O)C12O[C@@H]2c1cccc(O)c1 (stereo not given in full)
labelValue: label 0
--
compound: C1OCC(C2OCOC2C2OCOC2C2COCO2)O1 (stereo not given)
labelValue: label 0
--
compound: Cc1ccnc(-n2c(N)cc(=O)[nH]c2=S)c1
labelValue: label 0

What outcome does the record of this test show for c1ccc(CSc2nn[nH]n2)cc1 ?
label 0

Returns: the outcome recorded for COc1cc(-c2ccccc2)c(OC)cc1CCl in this assay.
label 0

Write down the call the test reported for this compound. Item: CC(=O)CC(C)(C)N
label 0

Lab log entry: CCC(c1ccc(OC)cc1)c1cc2c(cc1OCCO)OCO2 (stereo not given) — outcome as called in the assay?
label 1

What did this assay record as the result for O=C1C=CC(n2cc(F)c(=O)[nH]c2=O)O1 (stereo not given) ?
label 0

Could you kindly confirm the outcome this assay logged for Cn1c(N)c2c(=O)n(C)c3c(c2c(C#N)c1=O)CCSc1ccccc1-3 ?
label 0

Just curious, what result did O=C(O)c1cc(C2CCCC2)nc2ccccc12 get here?
label 0

Test call, this compound: C[S+](C)N(c1ccccc1)C(C)(C)C
label 0

// outcome(item) with item = CC(C)SSC(=O)N1CCCC1C(=O)O (stereo not given)
label 0

What did this assay record as the result for C[N+](C)(Cc1cccc(Cl)c1)c1nnn[n-]1 ?
label 0

What call does the record list for O=C(CSc1nnc(Cc2ccccc2)o1)Nc1ccccc1 ?
label 0

Give the logged outcome of this assay for the following compound: COc1cccc(C(OC(=O)c2ccccc2)c2nncc3ccccc23)c1OC (stereo not given)
label 0

Please indicate how the test categorized O=C1CN(c2ccccc2)CC(=O)N2Cc3ccccc3CN12 .
label 0

Call for entry CN/N=C(\C(=O)Nc1ccc([N+](=O)[O-])cc1[N+](=O)[O-])C1NC(=O)NC1=O (stereo not given) :
label 0

Assay outcome for CC(C)CCc1ccc2ccc3cccc4ccc1c2c34 : what was it?
label 0

Name the outcome recorded for [Cl][Sm]([Cl])[Cl] in the assay.
label 0

###

Test: NCI Yeast Anticancer Drug Screen. Data for the mlh1 rad18 strain (AID 175)
Details: S. cerevisiae mlh1 rad18 strain growth inhibition; at 50.0 µM; active compounds read high
The panel holds about 79,000 compounds, 15% with a hit somewhere; the sample as a whole holds those more often. Where a SMILES comes first, the peptide text is derived from it.
measurementKind: growth inhibition (%)
Unit % implied. Number only.

Example entries and their recorded answers appear below.
molecule: CN(C)c1ncnc2cn[nH]c12
growth inhibition [%]: 0.6
--
molecule: CCCCCCCCCCCCCCCCOc1ccc(-c2cc(=O)n(C)n2C)cc1
growth inhibition [%]: -4.05
--
molecule: COc1ccc(/C=N/NC(N)=S)cc1
growth inhibition [%]: 46.6
--
molecule: Clc1cc(Cl)nc(Nc2ccc3c(c2)CCC3)n1
growth inhibition [%]: 39.5
--
molecule: CCC(C)C(N)C(=O)NC(C(=O)O)C(C)C (stereo not drawn) (H-Ile-Val-OH; configuration not given here)
growth inhibition [%]: -0.4
--
molecule: O=C1NNC2(C(=O)N1)c1ccccc1-c1ccccc12
growth inhibition [%]: 15.2

Report growth inhibition for CCCCOC(=O)c1c2nc3c(C(=O)OCCCC)ccc(C)c3oc-2c(C)c(=O)c1NC(C)=O
5.2

Please indicate growth inhibition recorded for CCOCCOC(=O)CCCCCCCCC(=O)OCCOCC
25.9

###

Test: NCI Yeast Anticancer Drug Screen. Data for the rad50 strain (AID 155);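 note: 0% = growth of vehicle-only cultures of the same strain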
Settings: S. cerevisiae rad50 strain growth inhibition; at 50.0 µM; active compounds read high
Compounds without any hit were thinned out: in the full panel of roughly 79,000, 15% have a hit.
Reported growth inhibition values for the following molecules.
Just the number in %, nothing appended.

# count of solved cases: 4
molecule: Cc1c(O)nc(N)[nH]c1=O
unitName: %
growth inhibition: 2.65
--
molecule: CC(=O)C1=C(c2ccccc2)N(C2OC(CO)C(O)C(O)C2O)C(S)=C(C#N)C1c1ccc(Cl)cc1 (stereo unspecified)
unitName: %
growth inhibition: 42.9
--
molecule: O=C1CSc2ccnc(=O)n21
unitName: %
growth inhibition: -0.1
--
molecule: O=C(NC12CC3CC(NC(=O)c4ccccc4)(CC(C1)c1ccccc13)C2)c1ccccc1
unitName: %
growth inhibition: 42.9

// Input: O=C(O)C(Nc1ccccc1)c1ccccc1 (stereo unspecified) . Output its growth inhibition only.
13.4

# return recorded growth inhibition for input CC(=O)N/N=C1\NN(C(C)=O)C2(S1)C(=O)Nc1ccccc12 (stereo unspecified)
7.7

Assign growth inhibition to the following record: Clc1ccccc1C(Nc1nc2ccccc2s1)Nc1nc2ccccc2s1
13.3

Fill in growth inhibition for record Nc1cn(Cc2ccccc2)c2nc(/C=C3/C=CC=CC3=O)c(O)n12
2.25

Specify measured growth inhibition for Cc1cn(C2CCCCC2O)c(=O)[nH]c1=O (stereo unspecified) .
-15.8

###

Assay: NCI Yeast Anticancer Drug Screen. Data for the sgs1 mgt1 strain (AID 161);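 note: 0% = growth of cultures given vehicle only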
Conditions: S. cerevisiae sgs1 mgt1 strain, at 50.0 µM, active compounds read high
Compounds without any hit were thinned out: in the full panel of roughly 79,000, 15% have a hit.
Mark Condition not met for growth inhibition values under 10%, and Condition met for everything at or above.

Use these answered entries as a reference point.
molecule: CC(C)(C)OC(=O)c1ccc(NCc2cc(O)ccc2O)cc1
labelValue: Condition met
--
molecule: O=C(O)/C=C/C=C/c1ccccc1
labelValue: Condition met
--
molecule: CC1=CC(=O)c2ccc3c4ccccc4n(C)c3c2C1=O
labelValue: Condition not met
--
molecule: Cc1ccc(N2CCN(c3ccc(C)cc3)C2=C2N(c3ccc(C)cc3)CCN2c2ccc(C)cc2)cc1
labelValue: Condition met

Exam item: decide whether the reported growth inhibition for O=C1CCCc2ccc3c(c21)CC1(Cc2ccccc2C1)C3 is at least 10%.
Condition not met

###

Recorded growth inhibition for the following compounds
Experiment: NCI Yeast Anticancer Drug Screen. Data for the cln2 rad14 strain (AID 165);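 note: 0% = growth equal to vehicle treated cultures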
Conditions: S. cerevisiae cln2 rad14 strain, at 50.0 µM, active compounds read high
Description: Growth inhibition of yeast strains with defined genetic alterations is measured as a screen for potential anti-cancer activity. Selected strains with alterations in DNA damage repair or cell cycle control were exposed to compounds and growth inhibition was measured relative to vehicle treated controls. The strain used in this assay is cln2 rad14
Compounds without any hit were thinned out: in the full panel of roughly 79,000, 15% have a hit. Where a SMILES comes first, the peptide text is derived from it. Bridges are numbered along the chain shown (N, C = ends). Roman numbers before positions name the chains, in order.
Quick reminder: number only, in %, skip the unit.

compound: CC(C)C(C)(O)CO (centres undefined)
growth inhibition, %: 16.8

compound: COc1ccc(N(N=Nc2ccccc2)C(C)=O)cc1
growth inhibition, %: -4.75

compound: NC(=O)C1C=CN(Cc2ccccc2)C=C1
growth inhibition, %: -12.8

compound: [N-]=[N+]=Nc1ccnc2c(C(F)(F)F)cccc12
growth inhibition, %: -60.2

compound: CC(C)CCOC(=O)c1ccc(C(C)C)cc1
growth inhibition, %: -17.7

Please supply the value of reported growth inhibition for the item O=S(NOCc1ccccc1)c1ccccc1 (centres undefined)
-31.8

Quote growth inhibition reported for CC(C)CC(NC(=O)C(N)CSSCC(N)C(=O)NC(CC(C)C)C(=O)O)C(=O)O (stereo not drawn) (I: H-Cys-Leu-OH / II: H-Cys-Leu-OH; disulfide I:1-II:1; configuration not given here) please.
-23.1

Report growth inhibition for C/C(=N/NC(N)=O)c1ccc(C)o1
-0.75

Consider the compound CCOc1ccc(/C=C2\CCc3ccccc3C2=O)cc1 and give its recorded growth inhibition.
20.9

Supply measured growth inhibition of CCCC(=O)Oc1ccc2ccccc2c1 in your reply.
14.7

// provenance: PubChem BioAssay (NCI)
